Values compiled from ChEMBL document CHEMBL5321219.

Exercise: state measured Ki for each of the compounds provided.
assayed system: Bromodomain-containing protein 3 (Homo sapiens)
Sequence (Q15059 whole entry, the tested form may be a part): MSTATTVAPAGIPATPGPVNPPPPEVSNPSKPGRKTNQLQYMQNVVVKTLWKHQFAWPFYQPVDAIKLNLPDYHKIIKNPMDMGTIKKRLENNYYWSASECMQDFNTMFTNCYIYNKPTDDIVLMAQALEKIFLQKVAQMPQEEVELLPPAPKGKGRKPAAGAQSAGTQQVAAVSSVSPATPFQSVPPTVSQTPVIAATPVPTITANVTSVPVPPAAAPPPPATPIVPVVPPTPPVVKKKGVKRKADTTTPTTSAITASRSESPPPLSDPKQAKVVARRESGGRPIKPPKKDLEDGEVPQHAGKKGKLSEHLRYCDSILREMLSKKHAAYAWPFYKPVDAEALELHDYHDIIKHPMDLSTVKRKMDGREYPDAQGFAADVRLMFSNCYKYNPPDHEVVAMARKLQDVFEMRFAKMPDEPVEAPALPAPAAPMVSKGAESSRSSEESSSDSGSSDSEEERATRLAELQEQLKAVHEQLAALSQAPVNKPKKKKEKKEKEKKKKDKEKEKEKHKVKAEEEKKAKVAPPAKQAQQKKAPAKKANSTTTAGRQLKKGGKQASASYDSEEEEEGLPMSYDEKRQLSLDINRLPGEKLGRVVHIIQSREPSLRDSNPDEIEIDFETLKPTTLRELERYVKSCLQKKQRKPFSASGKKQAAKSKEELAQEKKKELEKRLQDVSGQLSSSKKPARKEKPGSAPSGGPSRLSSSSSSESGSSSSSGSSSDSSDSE
procedure summary: Binding affinity to recombinant human BRD3 BD2 (306 to 417 residues) assessed as inhibition constant by fluorescence polarization binding assay
Write the number in nM without appending the unit.

The reported Ki of the compound Cc1nnc2n1-c1ccc(-c3ccc(CN(C)CCCCc4cccc5c4CN(C4CCC(=O)NC4=O)C5=O)cc3)cc1C(Nc1ccc(Cl)cc1)CC2 (stereo not drawn) was 2.8

The reported Ki of the compound Cc1nnc2n1-c1ccc(-c3cnn(CC(=O)NCCCCCC#Cc4cccc5c4CN(C4CCC(=O)NC4=O)C5=O)c3)cc1C(Nc1ccc(Cl)cc1)CC2 (stereo not drawn) was 6.29

The reported Ki of the compound Cc1nnc2n1-c1ccc(-c3ccc(CNCCCCc4cccc5c4CN(C4CCC(=O)NC4=O)C5=O)cc3)cc1C(Nc1ccc(Cl)cc1)CC2 (stereo not drawn) was 2.45
